So I've got a bunch of compounds here, and I need their pIC50 values.
- targetOfAssay: PD-1/PD-L1 (Homo sapiens (Human), UniProt Q9NZQ7)
- Sequence (Q9NZQ7 19-238): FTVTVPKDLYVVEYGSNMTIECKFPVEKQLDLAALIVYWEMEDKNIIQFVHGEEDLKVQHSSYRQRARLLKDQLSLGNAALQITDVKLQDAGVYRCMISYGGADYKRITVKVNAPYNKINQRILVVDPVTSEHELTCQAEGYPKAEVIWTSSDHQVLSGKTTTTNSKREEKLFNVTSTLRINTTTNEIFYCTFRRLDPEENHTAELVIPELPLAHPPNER
- assayExplanation: Homogeneous Time-Resolved Fluorescence (HTRF) PD-1/PD-L1 binding assay
- testConditions: recombinant human PD-1 and PD-L1
Answers are plain numbers, as −log10 of the molar value.

Below are worked cases with known answers.
[
  {
    "compound": "C[C@@H](O)CN1CCc2c(nc(C(=O)Nc3cccc(-c4cccc(NC(=O)c5nc6c(n5C)CCN(CC57CCC(C(=O)O)(CC5)C7)C6)c4Cl)c3Cl)n2C)C1 [Example 182, reference compound]",
    "targetOfAssay": "PD-1/PD-L1 (Homo sapiens (Human), UniProt Q9NZQ7)",
    "testValue": 8.77
  },
  {
    "compound": "Cc1c(Nc2nc(C(F)F)nc3cc(CN4CC[C@@H](O)C4)cnc23)cccc1-c1cccc(NC(=O)c2nc3c(n2C)CCN(CCC24CCC(C(=O)O)(CC2)C4)C3)c1Cl",
    "targetOfAssay": "PD-1/PD-L1 (Homo sapiens (Human), UniProt Q9NZQ7)",
    "testValue": 8.66
  },
  {
    "compound": "Cc1c(Nc2nc(C(F)F)nc3cc(CN4CC[C@@](C)(O)C4)cnc23)cccc1-c1cccc(NC(=O)c2nc3c(n2C)CCN(CCC24CCC(C(=O)O)(CC2)C4)C3)c1Cl",
    "targetOfAssay": "PD-1/PD-L1 (Homo sapiens (Human), UniProt Q9NZQ7)",
    "testValue": 8.82
  },
  {
    "compound": "Cn1c(C(=O)Nc2cccc(-c3cccc(NC(=O)c4nc5c(n4C)CCN(C4CCC(O)CC4)C5)c3Cl)c2Cl)nc2c1CCN(CC13CCC(C(=O)O)(CC1)C3)C2 (centres unmarked) [Example 183, reference compound]",
    "targetOfAssay": "PD-1/PD-L1 (Homo sapiens (Human), UniProt Q9NZQ7)",
    "testValue": 8.74
  }
]

Note: attention shifts to another entry.
Request: Record request: pIC50 value, item `Cc1c(NC(=O)c2nc3c(n2C)CCN(CCC24CCC(C(=O)O)(CC2)C4)C3)cccc1-c1cccc(Nc2nc(C(F)F)nc3cc(CN4CC[C@@H](O)C4)cnc23)c1C`
Response: 8.68

###

- assayExplanation: In vivo pharmacokinetics in monkeys
- testConditions: both sexes, plasma; cynomolgus monkey, 3.0 mg/kg PO, cassette dosing
outcomeMeasure: Cmax (nM)
One number for each entry, in nM.

Below are worked cases with known answers.
[
  {
    "compound": "Cc1c(Nc2nc(C(F)F)nc3cc(CN4CC[C@@H](O)C4)cnc23)cccc1-c1cccc(NC(=O)c2nc3c(n2C)CCN(CCC24CCC(C(=O)O)(CC2)C4)C3)c1Cl [Example 1]",
    "Cmax [nM]": 794
  },
  {
    "compound": "Cc1c(NC(=O)c2nc3c(n2C)CCN(CCC24CCC(C(=O)O)(CC2)C4)C3)cccc1-c1cccc(Nc2nc(C(F)F)nc3cc(CN4CC[C@@H](O)C4)cnc23)c1C [Example 5]",
    "Cmax [nM]": 1300
  }
]

Note: attention shifts to another entry.
Request: Record request: Cmax value, item Cc1c(Nc2nc(C(F)F)nc3cc(CN4CC[C@@](C)(O)C4)cnc23)cccc1-c1cccc(NC(=O)c2nc3c(n2C)CCN(CCC24CCC(C(=O)O)(CC2)C4)C3)c1Cl [Example 2]
Response: 579
